Provide the reported PET hydrolysis product formed of each item.
# experimentDescription: PET hydrolysis product formed (TPA+MHET+BHET, UV-Vis) per mg enzyme (mmol/mg enzyme); higher = more PET depolymerisation activity; extreme values may be limits of the assay
# measurementConditions: PET substrate: aFilm; 60 °C; pH 6.5; 2 h
Quick one: just the number, no unit, thanks!

In: PET hydrolysis product formed for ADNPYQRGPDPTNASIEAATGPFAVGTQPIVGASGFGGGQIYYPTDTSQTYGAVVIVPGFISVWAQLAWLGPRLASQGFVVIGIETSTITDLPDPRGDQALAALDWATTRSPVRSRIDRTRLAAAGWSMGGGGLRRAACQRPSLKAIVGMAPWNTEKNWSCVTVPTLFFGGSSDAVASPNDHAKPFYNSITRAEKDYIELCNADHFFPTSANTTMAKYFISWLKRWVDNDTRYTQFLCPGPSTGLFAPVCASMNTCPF [CaPETaseM9] ?
Out: 0.00371

In: PET hydrolysis product formed for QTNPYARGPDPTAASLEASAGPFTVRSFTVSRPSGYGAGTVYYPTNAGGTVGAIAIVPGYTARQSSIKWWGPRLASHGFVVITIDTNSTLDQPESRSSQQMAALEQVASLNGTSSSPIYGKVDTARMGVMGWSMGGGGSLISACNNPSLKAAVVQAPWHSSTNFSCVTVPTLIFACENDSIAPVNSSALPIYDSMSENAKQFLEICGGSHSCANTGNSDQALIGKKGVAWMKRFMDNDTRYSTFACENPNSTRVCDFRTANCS [Z1-PETase] ?
Out: 0

In: PET hydrolysis product formed for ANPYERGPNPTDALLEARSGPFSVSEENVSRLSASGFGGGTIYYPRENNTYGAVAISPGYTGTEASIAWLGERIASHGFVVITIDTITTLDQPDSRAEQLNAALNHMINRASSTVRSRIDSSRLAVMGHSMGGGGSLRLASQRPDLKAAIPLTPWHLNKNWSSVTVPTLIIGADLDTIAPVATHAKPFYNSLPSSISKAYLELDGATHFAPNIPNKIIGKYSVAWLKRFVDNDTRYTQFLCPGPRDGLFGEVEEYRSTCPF [TfCut2] ?
Out: 0.00338
